These measurements were taken from ChEMBL document CHEMBL3576813.

- experimental.target: Heat shock protein HSP90 (Homo sapiens) (UniProt P07900+P08238)
- assay.procedure: Inhibition of HSP90 in human MCF7 cells assessed as induction of heat shock response-mediated HSP90 production at 0.5 times to 5 times IC50 after 24 hrs by Western blot analysis
- Assay type: cell-based
The source made the active and inactive calls. The calls are words filed in the database; no cut-off is given here.
assay.metric: inhibition

molecule | experimental.target | result
CC(C)(O)/C=C/C(=O)[C@](C)(O)[C@H]1[C@H](O)C[C@@]2(C)[C@@H]3CC=C4[C@@H](C=C(O)C(=O)C4(C)C)[C@]3(C)C(=O)C[C@]12C [CUCURBITACIN I] | Heat shock protein HSP90 (Homo sapiens) (UniProt P07900+P08238) | inactive
CC(=O)OC(C)(C)/C=C/C(=O)[C@](C)(O)[C@H]1[C@H](O)C[C@@]2(C)[C@@H]3CC=C4[C@H](C[C@H](O)C(=O)C4(C)C)[C@]3(C)C(=O)C[C@]12C [CUCURBITACIN B] | Heat shock protein HSP90 (Homo sapiens) (UniProt P07900+P08238) | inactive
CC(C)(O)CCC(=O)[C@@](C)(O)[C@H]1[C@H](O)C[C@@]2(C)[C@@H]3CC=C4[C@@H](C[C@H](O)C(=O)C4(C)C)[C@]3(C)C(=O)C[C@]12C | Heat shock protein HSP90 (Homo sapiens) (UniProt P07900+P08238) | inactive

----------
- experimental.target: Heat shock protein HSP90 (Homo sapiens) (UniProt P07900+P08238)
- assay.procedure: Inhibition of HSP90 in human MCF7 cells assessed as induction of heat shock response-mediated HSP90 production at 0.5 times to 5 times IC50 after 24 hrs by Western blot analysis
- Assay type: cell-based
Calls of active or inactive are those of the source. The calls are words filed in the database; no cut-off is given here.

compound | inhibition
CC(=O)OC(C)(C)CCC(=O)[C@](C)(O)[C@H]1[C@H](O)C[C@@]2(C)[C@@H]3CC=C4[C@@H](C[C@H](O)C(=O)C4(C)C)[C@]3(C)C(=O)C[C@]12C [23,24-DIHYDROCUCURBITACIN B] | inactive
CC(=O)OC(C)(C)/C=C/C(=O)[C@](C)(O)[C@H]1[C@H](O)C[C@@]2(C)[C@@H]3CC=C4[C@@H](C=C(O)C(=O)C4(C)C)[C@]3(C)C(=O)C[C@]12C | inactive
